TGT: T1, human nerve growth factor (human, UniProt P01138 122-241)
T1 construct: Immobilised on CM5 chips for BIAcore, soluble in neuron survival assays; also called human NGF; hNGF
TEST: BIAcore SPR screen, Fab over immobilised human NGF
ENDPOINT_NAME: koff (s⁻¹)
Please reply with the bare figure in s⁻¹ and do not write the unit itself.

Given item 8L2-6D5 template Fab with L_S91E; L_K92R and H_Y101W; H_G103A (Fab, V domains shown, See note of m8) VH: QVQLQESGPGLVKPSETLSLTCTVSGFSLIGYDINWIRQPPGKGLEWIGMIWGDGTTDYNSALKSRVTISKDTSKNQFSLKLSSVTAADTAVYYCARGGYWYATSYYFDYWGQGTLVTVS VL: DIQMTQSPSSLSASVGDRVTITCRASQDISNHLNWYQQKPGKAPKLLIYYISRFHSGVPSRFSGSGSGTDFTFTISSLQPEDIATYYCQQERTLPYTFGQGTKLEIKR , the value recorded as its koff is 0.0001

Next:
Given item H19-L129 template Fab with L_S91E; L_K92K and H_Y101Y; H_G103A (Fab, V domains shown, See note of m8) VH: QVQLQESGPGLVKPSETLSLTCTVSGFSLIGYDLNWIRQPPGKGLEWIGIIWGDGTTDYNSAVKSRVTISKDTSKNQFSLKLSSVTAADTAVYYCARGGYYYATSYYFDYWGQGTLVTVS VL: DIQMTQSPSSLSASVGDRVTITCRASQSISNNLNWYQQKPGKAPKLLIYYTSRFHSGVPSRFSGSGSGTDFTFTISSLQPEDIATYYCQQEKTLPYTFGQGTKLEIKR , the value recorded as its koff is 2e-05

Given item H19-L129 (combined clone, H1 H2 L1 L2 matured) (Fab, V domains shown, See note of m8; also called H19-L129 Fab; Fab H19-L129) VH: QVQLQESGPGLVKPSETLSLTCTVSGFSLIGYDLNWIRQPPGKGLEWIGIIWGDGTTDYNSAVKSRVTISKDTSKNQFSLKLSSVTAADTAVYYCARGGYYYGTSYYFDYWGQGTLVTVS VL: DIQMTQSPSSLSASVGDRVTITCRASQSISNNLNWYQQKPGKAPKLLIYYTSRFHSGVPSRFSGSGSGTDFTFTISSLQPEDIATYYCQQSKTLPYTFGQGTKLEIKR , the value recorded as its koff is 0.00011

Given item H19-L129 template Fab with L_S91E; L_K92R and H_Y101Y; H_G103A (Fab, V domains shown, See note of m8) VH: QVQLQESGPGLVKPSETLSLTCTVSGFSLIGYDLNWIRQPPGKGLEWIGIIWGDGTTDYNSAVKSRVTISKDTSKNQFSLKLSSVTAADTAVYYCARGGYYYATSYYFDYWGQGTLVTVS VL: DIQMTQSPSSLSASVGDRVTITCRASQSISNNLNWYQQKPGKAPKLLIYYTSRFHSGVPSRFSGSGSGTDFTFTISSLQPEDIATYYCQQERTLPYTFGQGTKLEIKR , the value recorded as its koff is 1.5e-05

Given item 8L2-6D5 (CDR-grafted antibody with framework mutation V71K) (Fab, V domains shown, Fab (human IgG2 CH1 + C-kappa, His tag at heavy chain C terminus); also called 8L2-6D5 Fab; 8L2-6D5 (control)) VH: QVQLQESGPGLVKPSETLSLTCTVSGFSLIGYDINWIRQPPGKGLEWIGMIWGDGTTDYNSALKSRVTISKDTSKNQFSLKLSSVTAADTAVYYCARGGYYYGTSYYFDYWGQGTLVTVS VL: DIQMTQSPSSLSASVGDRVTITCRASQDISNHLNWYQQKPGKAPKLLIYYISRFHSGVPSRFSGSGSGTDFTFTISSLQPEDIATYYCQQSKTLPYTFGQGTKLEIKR , the value recorded as its koff is 0.001

Given item 8L2-6D5 template Fab with L_S91E; L_K92A and H_Y101W; H_G103A (Fab, V domains shown, See note of m8) VH: QVQLQESGPGLVKPSETLSLTCTVSGFSLIGYDINWIRQPPGKGLEWIGMIWGDGTTDYNSALKSRVTISKDTSKNQFSLKLSSVTAADTAVYYCARGGYWYATSYYFDYWGQGTLVTVS VL: DIQMTQSPSSLSASVGDRVTITCRASQDISNHLNWYQQKPGKAPKLLIYYISRFHSGVPSRFSGSGSGTDFTFTISSLQPEDIATYYCQQEATLPYTFGQGTKLEIKR , the value recorded as its koff is 0.00055

Given item H19-L129 template Fab with L_S91E; L_K92S and H_Y101W; H_G103S (Fab, V domains shown, See note of m8) VH: QVQLQESGPGLVKPSETLSLTCTVSGFSLIGYDLNWIRQPPGKGLEWIGIIWGDGTTDYNSAVKSRVTISKDTSKNQFSLKLSSVTAADTAVYYCARGGYWYSTSYYFDYWGQGTLVTVS VL: DIQMTQSPSSLSASVGDRVTITCRASQSISNNLNWYQQKPGKAPKLLIYYTSRFHSGVPSRFSGSGSGTDFTFTISSLQPEDIATYYCQQESTLPYTFGQGTKLEIKR , the value recorded as its koff is 4.7e-05

Given item antibody E3 (Fab) (Fab, V domains shown, Fab with human IgG2 CH1 and human kappa constant domain; His tag at the heavy chain C terminus in the E. coli format; also called Fab E3; 3E Fab) VH: QVQLQESGPGLVKPSETLSLTCTVSGFSLIGYDLNWIRQPPGKGLEWIGIIWGDGTTDYNSAVKSRVTISKDTSKNQFSLKLSSVTAADTAVYYCARGGYWYATSYYFDYWGQGTLVTVS VL: DIQMTQSPSSLSASVGDRVTITCRASQSISNNLNWYQQKPGKAPKLLIYYTSRFHSGVPSRFSGSGSGTDFTFTISSLQPEDIATYYCQQEHTLPYTFGQGTKLEIKR , the value recorded as its koff is 1.2e-05

Given item clone 3C (Fab) (Fab, V domains shown, same L1, L2, H1, H2 mutations as 3E; See note of m8; also called Fab 3C) VH: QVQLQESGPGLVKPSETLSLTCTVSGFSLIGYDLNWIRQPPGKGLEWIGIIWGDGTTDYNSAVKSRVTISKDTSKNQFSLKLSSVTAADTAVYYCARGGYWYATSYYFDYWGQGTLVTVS VL: DIQMTQSPSSLSASVGDRVTITCRASQSISNNLNWYQQKPGKAPKLLIYYTSRFHSGVPSRFSGSGSGTDFTFTISSLQPEDIATYYCQQERTLPYTFGQGTKLEIKR , the value recorded as its koff is 1.4e-05
